IC50: recorded values
# Test system: Plasmodium falciparum
# Assay procedure: Antimalarial activity against chloroquine/mefloquine-resistant Plasmodium falciparum Dd2 measured after 72 hrs by SYBR green1 dye based fluorescence assay
# Format: functional, organism-based
# Protocol conditions: Plasmodium falciparum, Dd2, 72 h
Quick reminder: number only, in µM, skip the unit.

Example entries begin here.
>>> df
                           structure_smiles  value_type  recorded_measurement
0  C/C(=C/CC/C(C)=C/C(=O)C[C@]1(C)CCc2cc(O)cc(C)c2O1)CO        IC50                    24
1  C[C@@H]1CC[C@H]2[C@@H](C)C(=O)O[C@@H]3O[C@@]4(C)CC[C@@H]1[C@]32OO4        IC50                 0.009

Let us examine a further case.
Ask | I am curious: what IC50 value has been reported for `COc1cc(C)c2c(c1)CC[C@@](C)(CC(=O)/C=C(\C)CC/C=C(\C)CO)O2` ?
Reply | 24
